- ASSAY_METHOD_TEXT: inhibitors of TNFa-induced NFkB p65 translocation, primary screen, imaging, HUVEC, MLSMR starter and 10KST1 sets (AID 438);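 note: compound added about 3h40 before a 20 min TNFalpha stimulation; signal is the nuclear over cytoplasmic p65 intensity ratio per well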
- CONDITION_INFO: HUVEC TNFa-induced p65 nuclear translocation; at 2 µM, stronger effect = higher value, 0% TNFa-plus-vehicle, 100% no-TNFa wells
Active and inactive are the calls of the source.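 Rule for the calls: active = inhibition above 20% together with a positive visual image hit; inconclusive = visual image hit but inhibition not above 20%; inactive = no visual image hit.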
ASSAY_METRIC: inhibition

# query: inhibition of entry CCCn1c(=O)c(C(=O)NCc2ccccn2)c(O)c2ccccc21
4.2% (inactive)

Tell me the measured inhibition of CCCC(=O)N1CCN(c2ccc(NC(=O)c3ccc(Br)o3)cc2)CC1 , please.
0.6% (inactive)

Return reported inhibition; argument: Cc1cc(C)c2cc3c(ccn3C3OC[C@H](O)[C@H](O)[C@H]3O)cc2n1 (some centres not stated)
-21.8% (inactive)

Fill blank: measured inhibition of the molecule Clc1cccc(Cl)c1COc1ccncc1 is ____.
4.4% (inactive)

# input molecule: Cn1nnnc1SCSc1nnnn1C ; wanted: its inhibition
-16.6% (inactive)

# lookup: inhibition of COc1ccc(NC(=O)CSc2ccccn2)cc1OC
-42.2% (inactive)
